Numbers sourced from ChEMBL document CHEMBL5365493.

# system: Dipeptidyl peptidase 9 (Homo sapiens, UniProt Q86TI2)
# Sequence (Q86TI2 whole entry): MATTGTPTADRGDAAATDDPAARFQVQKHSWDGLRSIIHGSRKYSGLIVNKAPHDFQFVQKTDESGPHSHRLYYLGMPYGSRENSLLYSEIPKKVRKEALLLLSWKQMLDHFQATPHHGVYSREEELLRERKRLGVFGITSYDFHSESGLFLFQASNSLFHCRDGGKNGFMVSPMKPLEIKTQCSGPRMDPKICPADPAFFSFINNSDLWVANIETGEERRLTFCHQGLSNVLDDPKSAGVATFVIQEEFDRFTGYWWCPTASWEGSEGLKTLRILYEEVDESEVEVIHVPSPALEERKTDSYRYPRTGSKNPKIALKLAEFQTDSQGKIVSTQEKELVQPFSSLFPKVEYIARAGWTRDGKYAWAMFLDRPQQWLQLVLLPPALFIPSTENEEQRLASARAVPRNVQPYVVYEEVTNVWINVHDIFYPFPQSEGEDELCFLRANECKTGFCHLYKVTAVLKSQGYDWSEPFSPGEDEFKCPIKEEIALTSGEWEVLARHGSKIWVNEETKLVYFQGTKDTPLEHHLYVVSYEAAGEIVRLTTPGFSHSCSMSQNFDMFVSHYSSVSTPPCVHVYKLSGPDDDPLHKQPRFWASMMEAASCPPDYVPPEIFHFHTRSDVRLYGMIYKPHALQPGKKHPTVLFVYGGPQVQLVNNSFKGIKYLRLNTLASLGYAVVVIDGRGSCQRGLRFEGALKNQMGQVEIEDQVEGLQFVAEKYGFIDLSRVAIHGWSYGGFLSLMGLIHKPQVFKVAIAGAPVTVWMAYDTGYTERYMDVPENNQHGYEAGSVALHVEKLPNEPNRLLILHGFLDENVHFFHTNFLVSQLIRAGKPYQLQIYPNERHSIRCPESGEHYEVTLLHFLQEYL
# run.description: Inhibition of N-terminal human recombinant DPP9 expressed in Sf9 insect cells using Ala-Pro-paranitroanilide as substrate incubated for 15 mins by […]
pIC50: −log10 of the molar value.
Would you mind sorting the entries by pIC50 according to these classes? lower range: < 6; middle range: ≥ 6 and < 7; upper range: ≥ 7

{"columns": ["smiles.data", "group"],
 "data": [
  ["O=C(CNC12CC3CC(C1)CC(NC(=O)C14CC5CC(CC(C5)C1)C4)(C3)C2)N1Cc2ccc(F)cc2C1", "upper range"],
  ["O=C(CNC12CC3CC(C1)CC(NC(=O)C14CC5CC(CC(C5)C1)C4)(C3)C2)N1Cc2ccccc2C1", "middle range"],
  ["CC(C)[C@H](NC12CC3CC(CC(NC(=O)OC(C)(C)C)(C3)C1)C2)C(=O)N1Cc2ccccc2C1", "lower range"],
  ["O=C(NCCc1ccccc1)OC12CC3CC(CC(NCC(=O)N4Cc5ccccc5C4)(C3)C1)C2", "middle range"],
  ["NCCCN1CCN(CCCNC(=O)OC23CC4CC(CC(NCC(=O)N5Cc6ccccc6C5)(C4)C2)C3)CC1", "lower range"],
  ["NCCCCNC(=O)OC12CC3CC(CC(NCC(=O)N4Cc5ccccc5C4)(C3)C1)C2", "middle range"],
  ["O=C(CC12CC3CC(CC(O)(C3)C1)C2)NC12CC3CC(CC(NCC(=O)N4Cc5ccccc5C4)(C3)C1)C2", "middle range"],
  ["O=C(CNC12CC3CC(C1)CC(OC(=O)N1CCNCC1)(C3)C2)N1Cc2ccccc2C1", "middle range"],
  ["CC(C)(C)OC(=O)N[C@@H](Cc1ccccc1)C(=O)NC12CC3CC(CC(NCC(=O)N4Cc5ccccc5C4)(C3)C1)C2", "lower range"],
  ["O=C(NCCF)OC12CC3CC(CC(NCC(=O)N4Cc5ccccc5C4)(C3)C1)C2", "middle range"],
  ["O=C(NCc1ccccc1)NC12CC3CC(CC(NCC(=O)N4Cc5ccccc5C4)(C3)C1)C2", "upper range"],
  ["CC(C)(C)COC(=O)NC12CC3CC(CC(NCC(=O)N4Cc5ccccc5C4)(C3)C1)C2", "middle range"],
  ["CC(C)(OC(=O)NC12CC3CC(CC(NCC(=O)N4Cc5ccccc5C4)(C3)C1)C2)C(Cl)(Cl)Cl", "lower range"],
  ["O=C(NC(c1ccccc1)c1ccccc1)OC12CC3CC(CC(NCC(=O)N4Cc5ccccc5C4)(C3)C1)C2", "upper range"],
  ["CC(C)CCNC(=O)OC12CC3CC(CC(NCC(=O)N4Cc5ccccc5C4)(C3)C1)C2", "middle range"]
]}

* * *

# system: Dipeptidyl peptidase 9 (Homo sapiens)
# run.description: Inhibition of N-terminal human recombinant DPP9 expressed in Sf9 insect cells using Ala-Pro-paranitroanilide as substrate incubated for 15 mins by […]

{"columns": ["smiles.data", "system", "IC50"],
 "data": [
  ["N#Cc1cccc(CNC23CC4CC(CC(NCC(=O)N5Cc6ccccc6C5)(C4)C2)C3)c1", "Dipeptidyl peptidase 9 (Homo sapiens)", "190 nM"],
  ["CC(C)(C)OC(=O)NC12CC3CC(CC(NCC(=O)N4Cc5cc(F)c(F)cc5C4)(C3)C1)C2", "Dipeptidyl peptidase 9 (Homo sapiens)", "3 nM"],
  ["O=C(NCc1ccccn1)OC12CC3CC(CC(NCC(=O)N4Cc5ccccc5C4)(C3)C1)C2", "Dipeptidyl peptidase 9 (Homo sapiens)", "120 nM"],
  ["O=C(NCCCCO)OC12CC3CC(CC(NCC(=O)N4Cc5ccccc5C4)(C3)C1)C2", "Dipeptidyl peptidase 9 (Homo sapiens)", "200 nM"],
  ["CC(C)[C@H](NC12CC3CC(CC(N)(C3)C1)C2)C(=O)N1Cc2ccccc2C1", "Dipeptidyl peptidase 9 (Homo sapiens)", "> 10000 nM"],
  ["O=C(NC12CC3CC(CC(C3)C1)C2)OC12CC3CC(CC(NCC(=O)N4Cc5ccccc5C4)(C3)C1)C2", "Dipeptidyl peptidase 9 (Homo sapiens)", "150 nM"],
  ["O=C(CNC12CC3CC(C1)CC(NCC(=O)N1Cc4ccccc4C1)(C3)C2)N1Cc2ccccc2C1", "Dipeptidyl peptidase 9 (Homo sapiens)", "55 nM"],
  ["CC(C)(C)NC(=O)NC12CC3CC(CC(NCC(=O)N4Cc5ccccc5C4)(C3)C1)C2", "Dipeptidyl peptidase 9 (Homo sapiens)", "50 nM"],
  ["CC(C)(C)NC(=O)OC12CC3CC(CC(NCC(=O)N4Cc5ccccc5C4)(C3)C1)C2", "Dipeptidyl peptidase 9 (Homo sapiens)", "169 nM"]
]}

* * *

# system: Dipeptidyl peptidase 8 (Homo sapiens)
# run.description: Inhibition of DPP8 (unknown origin)

{"columns": ["molecule", "IC50 [nM]"],
 "data": [
  ["N[C@H](C(=O)N1Cc2ccccc2C1)C1CCC(O)CC1 (stereo partly specified)", 24]
]}

* * *

Each record here notes measured pIC50.
# system: Dipeptidyl peptidase 8 (Homo sapiens, UniProt Q6V1X1)
# Sequence (Q6V1X1 whole entry): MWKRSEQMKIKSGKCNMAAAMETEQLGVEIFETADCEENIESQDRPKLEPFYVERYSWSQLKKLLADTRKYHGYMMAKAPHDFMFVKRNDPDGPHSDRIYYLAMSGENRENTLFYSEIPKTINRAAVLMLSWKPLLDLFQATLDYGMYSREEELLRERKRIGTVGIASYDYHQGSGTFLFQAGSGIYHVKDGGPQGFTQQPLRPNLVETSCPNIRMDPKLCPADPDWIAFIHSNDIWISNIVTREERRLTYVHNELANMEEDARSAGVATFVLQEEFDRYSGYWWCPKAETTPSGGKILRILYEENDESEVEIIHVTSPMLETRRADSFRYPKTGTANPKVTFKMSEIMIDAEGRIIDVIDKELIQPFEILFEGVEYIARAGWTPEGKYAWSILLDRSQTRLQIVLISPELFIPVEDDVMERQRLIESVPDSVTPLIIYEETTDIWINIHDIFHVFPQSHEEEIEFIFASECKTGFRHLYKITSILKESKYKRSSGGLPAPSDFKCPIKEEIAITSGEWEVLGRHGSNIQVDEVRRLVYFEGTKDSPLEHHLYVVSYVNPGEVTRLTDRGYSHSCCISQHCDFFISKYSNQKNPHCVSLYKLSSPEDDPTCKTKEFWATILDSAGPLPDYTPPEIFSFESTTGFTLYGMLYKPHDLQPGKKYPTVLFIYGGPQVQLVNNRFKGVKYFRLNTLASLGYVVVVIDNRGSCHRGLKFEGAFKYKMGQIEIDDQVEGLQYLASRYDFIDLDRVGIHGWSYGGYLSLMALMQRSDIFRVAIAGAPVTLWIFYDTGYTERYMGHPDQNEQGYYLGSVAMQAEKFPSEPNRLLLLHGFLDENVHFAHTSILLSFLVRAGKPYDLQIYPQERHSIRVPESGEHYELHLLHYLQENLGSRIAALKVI
# run.description: Inhibition of N-terminal human recombinant DPP8 expressed in Sf9 insect cells using Ala-Pro-paranitroanilide as substrate incubated for 15 mins by […]
pIC50: −log10 of the molar value.

{"columns": ["smiles.data", "reported.relation", "pIC50"],
 "data": [
  ["CC(C)[C@H](NC12CC3CC(CC(NC(=O)OC(C)(C)C)(C3)C1)C2)C(=O)N1Cc2ccccc2C1", "<", 5.00],
  ["CC(C)(OC(=O)NC12CC3CC(CC(NCC(=O)N4Cc5ccccc5C4)(C3)C1)C2)C(Cl)(Cl)Cl", "<", 5.00],
  ["CCC(C)(C)NC(=O)OC12CC3CC(CC(NCC(=O)N4Cc5ccccc5C4)(C3)C1)C2", "=", 5.30],
  ["CC(C)CCNC(=O)OC12CC3CC(CC(NCC(=O)N4Cc5ccccc5C4)(C3)C1)C2", "=", 5.68],
  ["CC(C)(C)OC(=O)N[C@@H](Cc1ccccc1)C(=O)NC12CC3CC(CC(NCC(=O)N4Cc5ccccc5C4)(C3)C1)C2", "=", 5.22],
  ["CC(C)[C@H](NC12CC3CC(CC(N)(C3)C1)C2)C(=O)N1Cc2ccccc2C1", "<", 5.00],
  ["CCCCNC12CC3CC(C1)CC(NCC(=O)N1Cc4ccccc4C1)(C3)C2", "<", 5.00]
]}

* * *

# system: UniProtKB P27487
# Sequence (P27487 whole entry): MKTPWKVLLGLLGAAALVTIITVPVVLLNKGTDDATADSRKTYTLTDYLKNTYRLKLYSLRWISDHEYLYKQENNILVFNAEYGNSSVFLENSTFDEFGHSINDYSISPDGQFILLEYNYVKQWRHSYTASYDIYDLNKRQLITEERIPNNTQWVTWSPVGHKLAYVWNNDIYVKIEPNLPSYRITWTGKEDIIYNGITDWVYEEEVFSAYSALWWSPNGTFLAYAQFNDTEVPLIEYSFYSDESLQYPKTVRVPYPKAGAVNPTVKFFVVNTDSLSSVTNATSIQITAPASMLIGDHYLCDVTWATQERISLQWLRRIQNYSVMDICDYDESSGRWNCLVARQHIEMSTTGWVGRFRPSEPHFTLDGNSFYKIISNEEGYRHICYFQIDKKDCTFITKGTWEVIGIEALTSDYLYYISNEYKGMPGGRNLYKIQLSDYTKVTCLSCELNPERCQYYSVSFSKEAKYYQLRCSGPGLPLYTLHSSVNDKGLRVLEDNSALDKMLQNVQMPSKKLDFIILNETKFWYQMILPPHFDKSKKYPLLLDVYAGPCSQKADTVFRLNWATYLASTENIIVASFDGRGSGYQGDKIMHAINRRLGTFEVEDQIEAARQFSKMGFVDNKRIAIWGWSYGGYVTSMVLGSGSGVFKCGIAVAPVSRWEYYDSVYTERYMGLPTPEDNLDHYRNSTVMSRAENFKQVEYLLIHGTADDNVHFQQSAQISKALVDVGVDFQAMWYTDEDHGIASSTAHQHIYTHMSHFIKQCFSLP
# run.description: Inhibition of human seminal plasma DPP4 using Ala-Pro-paranitroanilide as substrate incubated for 15 mins by […]
# Format: cell-free
pIC50: −log10 of the molar value.
# Lookup of reported pIC50 keyed by entry

{"columns": ["smiles.data", "system", "pIC50"],
 "data": [
  ["CC(C)(OC(=O)NC12CC3CC(CC(NCC(=O)N4Cc5ccccc5C4)(C3)C1)C2)C(Cl)(Cl)Cl", "UniProtKB P27487", "< 5.00"],
  ["CC(C)(C)OC(=O)N[C@@H](Cc1ccccc1)C(=O)NC12CC3CC(CC(NCC(=O)N4Cc5ccccc5C4)(C3)C1)C2", "UniProtKB P27487", "< 5.00"],
  ["O=C(NCc1ccc(F)cc1F)OC12CC3CC(CC(NCC(=O)N4Cc5ccccc5C4)(C3)C1)C2", "UniProtKB P27487", "< 5.00"]
]}

* * *

Entries and their IC50 values follow.
# system: Dipeptidyl peptidase 9 (Homo sapiens)
# run.description: Inhibition of N-terminal human recombinant DPP9 expressed in Sf9 insect cells using Ala-Pro-paranitroanilide as substrate incubated for 15 mins by […]
recorded.endpoint: IC50 (nM)

{"columns": ["smiles.data", "test.result"],
 "data": [
  ["[N-]=[N+]=NCCCNC(=O)OC12CC3CC(CC(NCC(=O)N4Cc5ccccc5C4)(C3)C1)C2", 120],
  ["NC12CC3CC(C1)CC(NC(=O)OC14CC5CC(CC(NCC(=O)N6Cc7ccccc7C6)(C5)C1)C4)(C3)C2", 71],
  ["N#CCCCCNC12CC3CC(C1)CC(NCC(=O)N1Cc4ccccc4C1)(C3)C2", 1040]
]}
